FYI, the data here is from paper PMC9996622.

- STUDY_TARGET: DnaE1 (Mycobacterium tuberculosis, UniProt P9WNT7)
- Sequence (P9WNT7 whole entry): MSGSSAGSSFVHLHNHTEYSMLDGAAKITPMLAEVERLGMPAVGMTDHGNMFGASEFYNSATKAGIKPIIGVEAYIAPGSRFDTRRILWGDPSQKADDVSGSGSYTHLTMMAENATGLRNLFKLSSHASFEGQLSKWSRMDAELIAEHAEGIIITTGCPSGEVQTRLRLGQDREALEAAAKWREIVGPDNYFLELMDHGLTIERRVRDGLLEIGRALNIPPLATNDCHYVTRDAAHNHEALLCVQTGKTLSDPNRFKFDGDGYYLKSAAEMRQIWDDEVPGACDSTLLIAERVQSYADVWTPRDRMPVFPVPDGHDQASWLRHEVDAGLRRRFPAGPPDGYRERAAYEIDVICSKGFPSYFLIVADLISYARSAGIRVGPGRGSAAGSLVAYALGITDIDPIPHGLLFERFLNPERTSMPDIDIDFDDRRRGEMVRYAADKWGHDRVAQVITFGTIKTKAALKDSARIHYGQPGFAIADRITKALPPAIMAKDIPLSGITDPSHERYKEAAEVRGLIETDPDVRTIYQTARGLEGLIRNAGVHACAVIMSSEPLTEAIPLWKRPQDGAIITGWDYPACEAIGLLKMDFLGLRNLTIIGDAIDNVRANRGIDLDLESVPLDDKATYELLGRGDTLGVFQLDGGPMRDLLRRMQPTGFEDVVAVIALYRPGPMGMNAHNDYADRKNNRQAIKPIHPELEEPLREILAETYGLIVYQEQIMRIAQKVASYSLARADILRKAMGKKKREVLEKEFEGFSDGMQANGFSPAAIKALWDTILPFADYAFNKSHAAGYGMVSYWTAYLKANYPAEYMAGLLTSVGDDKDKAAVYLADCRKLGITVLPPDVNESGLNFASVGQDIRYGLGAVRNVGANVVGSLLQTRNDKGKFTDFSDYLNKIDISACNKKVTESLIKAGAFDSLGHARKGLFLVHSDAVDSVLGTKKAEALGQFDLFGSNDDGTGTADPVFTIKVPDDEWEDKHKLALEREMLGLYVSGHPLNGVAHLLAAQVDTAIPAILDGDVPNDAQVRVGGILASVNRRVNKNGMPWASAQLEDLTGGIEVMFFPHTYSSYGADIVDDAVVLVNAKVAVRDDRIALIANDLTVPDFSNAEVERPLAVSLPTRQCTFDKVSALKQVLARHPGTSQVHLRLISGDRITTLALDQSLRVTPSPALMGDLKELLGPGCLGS
QUANTITY_MEASURED: pIC50
Answers are plain numbers, as −log10 of the molar value.

Any idea what its pIC50 is? The compound is OC[C@H]1O[C@@H](n2cnc3c(S)ncnc32)[C@H](O)[C@@H]1O
4.19
